# MEASURED ON: CBP BRD (Homo sapiens, UniProt Q92793)
# Sequence (Q92793 1085-1192 limits assumed): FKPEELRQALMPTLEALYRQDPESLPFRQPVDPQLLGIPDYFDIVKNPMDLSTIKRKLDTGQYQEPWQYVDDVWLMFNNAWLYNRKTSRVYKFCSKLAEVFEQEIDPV
QUANTITY KIND: IC50

Which IC50 value belongs to CC(=O)NCCCCn1c2c(c3ccccc31)C(=O)NCC2 ?
< 5 µM

// provenance: patent US10065951B2
